# Test system: 463943-066-T-J2-PDC complex spheroid growth;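 further: compound exposure lasted 7 days; 100% = DMSO vehicle control wells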
# method description: Anticancer human tumor 463943-066-T-J2-PDC patient-derived colon adenocarcinoma cell line growth inhibition [Asc]
# reported conditions: second compound 0.3 µM; first compound 3.16 µM; stronger effect = lower value
Listing of recorded viability, T/C by entry.
Please state the figure in %; there is no need to write the unit.

Before answering, review these 3 worked examples.
O=C(c1cc(Cc2n[nH]c(=O)c3ccccc23)ccc1F)N1CCN(C(=O)C2CC2)CC1 + CCN1C(C(=O)NC23CCC(C(=O)O)(CC2)CC3)C(c2cccc(Cl)c2F)C2(C(=O)Nc3cc(Cl)ccc32)C12CCCCC2 ... 76.4
C=C(F)C(=O)N1CCN(c2nc(OCC3CCCN3C)nc3c2CCN(c2cccc4cccc(Cl)c24)C3)CC1CC#N (centres undefined) + CCN1C(C(=O)NC23CCC(C(=O)O)(CC2)CC3)C(c2cccc(Cl)c2F)C2(C(=O)Nc3cc(Cl)ccc32)C12CCCCC2 ... 79.1
C=CC(=O)N1CCN(c2nc(=O)n(-c3c(C)ccnc3C(C)C)c3nc(-c4c(O)cccc4F)c(F)cc23)C(C)C1 (centres undefined) + CCN1C(C(=O)NC23CCC(C(=O)O)(CC2)CC3)C(c2cccc(Cl)c2F)C2(C(=O)Nc3cc(Cl)ccc32)C12CCCCC2 ... 86.7

Consider the record given below.
Qu. Provide viability, T/C value for the following compound: C#Cc1c(F)ccc2cc(O)cc(-c3ncc4c(N5CC6CCC(C5)N6)nc(OCC56CCCN5CC(F)C6)nc4c3F)c12 (centres undefined) + CCN1C(C(=O)NC23CCC(C(=O)O)(CC2)CC3)C(c2cccc(Cl)c2F)C2(C(=O)Nc3cc(Cl)ccc32)C12CCCCC2
Ans. 83.1
